Reported EC50 values for the following compounds.
Test system: cellular pERK in NCI-H441 (KRAS-G12V) cell-line
MEASUREMENT_PROTOCOL: Cell based pERK assay, NCI-H441
RUN_CONDITIONS: Homo sapiens; NCI-H441 (KRAS-G12V) cells, 2 hours compound incubation, HTRF Phospho-ERK1/2
ASSAY_READOUT: EC50 (nM)

smiles_str=C#Cc1c(F)ccc2cc(N)cc(-c3c(F)cc4c(N5CC6(F)CCC(F)(C5)N6)nc(OCC56CCCN5CCC6)nc4c3F)c12 measurement_unit=nM bound_type== measured_result=49
smiles_str=Nc1cc2ccc(F)cc2c(-c2c(Cl)cc3c(N4CC5(F)CCC(F)(C4)N5)nc(OC[C@@]45CCCN4C[C@H](F)C5)nc3c2F)n1 measurement_unit=nM bound_type=> measured_result=1000
smiles_str=C#Cc1c(F)ccc2cc(N)nc(-c3c(Cl)cc4c(N5CC6(F)CCC(F)(C5)N6)nc(OC[C@@]56CCCN5C[C@H](F)C6)nc4c3F)c12 measurement_unit=nM bound_type== measured_result=548
smiles_str=Fc1cc2c(N3CC4(F)CCC(F)(C3)N4)nc(OC[C@@]34CCCN3C[C@H](F)C4)nc2c(F)c1-c1csc2ncnc(Cl)c12 measurement_unit=nM bound_type=> measured_result=1000
smiles_str=Cc1cc(-c2c(Cl)cc3c(N4CC5(F)CCC(F)(C4)N5)nc(OC[C@@]45CCCN4C[C@H](F)C5)nc3c2F)c2cccnc2c1N measurement_unit=nM bound_type=> measured_result=1000
smiles_str=CCc1c(F)ccc2cc(O)cc(-c3ncc4c(N5CC6(F)CCC(F)(C5)N6)nc(OC[C@@]56CCCN5C[C@H](F)C6)nc4c3F)c12 measurement_unit=nM bound_type== measured_result=4.7
